- Target desc: IKZF1 (Homo sapiens, UniProt Q13422+Q96SW2)
- Construct: expressed in transfected cells; host or cells: HEK293T (lentiviral transduction, puromycin selection, FACS sorting)
- Sequence (Q13422 whole entry): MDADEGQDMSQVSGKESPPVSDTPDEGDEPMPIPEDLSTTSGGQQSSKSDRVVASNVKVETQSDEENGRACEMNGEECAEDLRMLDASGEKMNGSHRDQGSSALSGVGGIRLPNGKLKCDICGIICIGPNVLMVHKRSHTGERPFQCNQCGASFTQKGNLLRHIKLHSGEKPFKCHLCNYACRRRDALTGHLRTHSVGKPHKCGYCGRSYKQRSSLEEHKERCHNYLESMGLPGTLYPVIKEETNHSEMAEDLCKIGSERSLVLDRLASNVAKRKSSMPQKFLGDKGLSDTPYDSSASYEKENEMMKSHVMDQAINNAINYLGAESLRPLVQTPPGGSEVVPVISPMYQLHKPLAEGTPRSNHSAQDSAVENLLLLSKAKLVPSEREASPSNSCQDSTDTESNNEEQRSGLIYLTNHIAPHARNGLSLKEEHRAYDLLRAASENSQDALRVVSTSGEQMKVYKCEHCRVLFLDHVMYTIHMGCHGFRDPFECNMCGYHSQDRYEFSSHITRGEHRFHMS
- Sequence (Q96SW2 whole entry): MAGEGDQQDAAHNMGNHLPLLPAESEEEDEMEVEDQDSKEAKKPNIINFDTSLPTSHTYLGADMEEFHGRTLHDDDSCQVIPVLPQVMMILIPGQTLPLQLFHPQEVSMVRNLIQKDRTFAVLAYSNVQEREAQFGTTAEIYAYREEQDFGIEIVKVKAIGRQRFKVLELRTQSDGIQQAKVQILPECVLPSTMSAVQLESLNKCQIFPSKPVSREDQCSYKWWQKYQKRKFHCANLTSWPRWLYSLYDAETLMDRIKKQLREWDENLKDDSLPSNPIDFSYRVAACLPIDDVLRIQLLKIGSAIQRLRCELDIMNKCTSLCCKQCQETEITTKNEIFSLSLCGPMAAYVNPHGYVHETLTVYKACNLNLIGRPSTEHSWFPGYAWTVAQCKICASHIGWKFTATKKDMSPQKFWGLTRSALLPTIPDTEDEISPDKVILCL
- Sequence (Q16531 whole entry partner): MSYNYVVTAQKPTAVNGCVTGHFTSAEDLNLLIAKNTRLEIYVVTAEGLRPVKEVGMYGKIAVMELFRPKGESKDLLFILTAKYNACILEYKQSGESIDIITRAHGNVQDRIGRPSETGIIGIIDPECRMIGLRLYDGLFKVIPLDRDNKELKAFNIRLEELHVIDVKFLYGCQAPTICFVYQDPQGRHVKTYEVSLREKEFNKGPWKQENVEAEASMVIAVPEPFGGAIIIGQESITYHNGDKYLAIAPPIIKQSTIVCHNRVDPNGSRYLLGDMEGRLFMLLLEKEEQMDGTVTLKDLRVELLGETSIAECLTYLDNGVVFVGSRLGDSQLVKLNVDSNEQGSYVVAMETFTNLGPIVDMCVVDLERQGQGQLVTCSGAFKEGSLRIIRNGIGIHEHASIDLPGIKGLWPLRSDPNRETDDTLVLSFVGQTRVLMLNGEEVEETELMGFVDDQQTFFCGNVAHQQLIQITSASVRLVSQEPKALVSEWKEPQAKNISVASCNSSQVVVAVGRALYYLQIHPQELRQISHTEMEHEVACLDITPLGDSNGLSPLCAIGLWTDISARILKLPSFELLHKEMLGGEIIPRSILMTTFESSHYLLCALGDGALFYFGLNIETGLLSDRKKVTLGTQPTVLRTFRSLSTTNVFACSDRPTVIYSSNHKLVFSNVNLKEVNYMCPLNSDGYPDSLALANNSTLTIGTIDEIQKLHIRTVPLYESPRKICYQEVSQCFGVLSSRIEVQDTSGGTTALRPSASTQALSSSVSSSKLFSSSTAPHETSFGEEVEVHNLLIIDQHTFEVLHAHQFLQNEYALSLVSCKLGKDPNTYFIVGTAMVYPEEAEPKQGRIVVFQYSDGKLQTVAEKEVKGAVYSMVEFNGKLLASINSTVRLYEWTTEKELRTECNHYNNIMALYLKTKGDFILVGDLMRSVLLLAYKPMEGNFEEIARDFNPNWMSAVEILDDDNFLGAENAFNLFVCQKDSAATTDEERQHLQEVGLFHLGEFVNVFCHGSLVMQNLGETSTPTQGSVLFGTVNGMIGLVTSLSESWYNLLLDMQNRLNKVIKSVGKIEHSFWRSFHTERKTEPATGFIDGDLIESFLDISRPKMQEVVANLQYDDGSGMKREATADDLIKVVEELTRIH
- Assay overview: Flow cytometry for measuring degradation, HEK293T GFP-POI reporter cells (IKZF1)
- Assay type: cell-based
- Test parameters: 100 nM, 24 h, HEK293T GFP reporter
Readout: IKZF1% degradation at 100 nM (%)

Some solved cases for reference:
[
  {
    "Molecule": "COc1cccc2c1OCC(C(=O)Nc1ccc3c(c1)CN(C1CCC(=O)NC1=O)C3=O)=C2 (centres unmarked)",
    "Target desc": "IKZF1 (Homo sapiens, UniProt Q13422+Q96SW2)",
    "IKZF1% degradation at 100 nM [%]": 10.7
  },
  {
    "Molecule": "O=C1CCC(N2Cc3cc(NC(=O)C4=Cc5ccc(C(F)(F)F)cc5OC4)ccc3C2=O)C(=O)N1 (centres unmarked)",
    "Target desc": "IKZF1 (Homo sapiens, UniProt Q13422+Q96SW2)",
    "IKZF1% degradation at 100 nM [%]": 8
  },
  {
    "Molecule": "COc1cc(Oc2ccccc2)ccc1C(=O)Nc1ccc2c(c1)CN(C1CCC(=O)NC1=O)C2=O (centres unmarked)",
    "Target desc": "IKZF1 (Homo sapiens, UniProt Q13422+Q96SW2)",
    "IKZF1% degradation at 100 nM [%]": 2.4
  }
]

A = COCOc1ccc2cc(C(=O)Nc3ccc4c(c3)CN(C3CCC(=O)NC3=O)C4=O)ccc2c1 (centres unmarked)
B = COc1cccc2c1C=C(C(=O)Nc1ccc3c(c1)CN(C1CCC(=O)NC1=O)C3=O)CO2 (centres unmarked)
C = O=C1CCC(N2Cc3cc(NC(=O)C4=Cc5ccc(Br)cc5OC4)ccc3C2=O)C(=O)N1 (centres unmarked)
D = COc1ccc(CCC(=O)Nc2ccc3c(c2)CN(C2CCC(=O)NC2=O)C3=O)cc1 (centres unmarked)
E = CN1C(=O)CCc2cc(C(=O)Nc3ccc4c(c3)CN(C3CCC(=O)NC3=O)C4=O)ccc21 (centres unmarked)
query: Rank items: key IKZF1% degradation at 100 nM, increasing. // respond by listing labels in the order requested
result: E, A, C, B, D
(E: 2.4%, A: 6.7%, C: 12.9%, B: 39.4%, D: 81.9%)

1 = Cc1ccc2c(c1)OCC(C(=O)Nc1ccc3c(c1)CN(C1CCC(=O)NC1=O)C3=O)=C2 (centres unmarked)
2 = C[C@H](NC(=O)c1ccccc1)C(=O)Nc1ccc2c(c1)CN(C1CCC(=O)NC1=O)C2=O (some centres unmarked)
query: Please let me know which one, 1 or 2 , has a lower measured IKZF1% degradation at 100 nM value. Write down the label of the entry you select.
result: 1
(1: 8.6%, 2: 50.9%)

I = COc1cc(Br)cc2c1OCC(C(=O)Nc1ccc3c(c1)CN(C1CCC(=O)NC1=O)C3=O)=C2 (centres unmarked)
II = O=C1CCC(N2Cc3cc(NC(=O)c4ccc5occc5c4)ccc3C2=O)C(=O)N1 (centres unmarked)
III = COc1ccc2cccc(CC(=O)Nc3ccc4c(c3)CN(C3CCC(=O)NC3=O)C4=O)c2c1 (centres unmarked)
IV = O=C1CCC(N2Cc3cc(NC(=O)c4cccc(C(=O)c5ccccc5)c4)ccc3C2=O)C(=O)N1 (centres unmarked)
V = CC(=O)N1CCC[C@H]1C(=O)Nc1ccc2c(c1)CN(C1CCC(=O)NC1=O)C2=O (some centres unmarked)
query: List from greatest to least IKZF1% degradation at 100 nM. Submit the labels in the order that the ranking request calls for.
result: III, IV, I, II, V
(III: 96.9%, IV: 59.5%, I: 12.6%, II: 6.4%, V: 3.6%)

I = O=C1CCC(N2Cc3cc(NC(=O)c4cc5ccccc5o4)ccc3C2=O)C(=O)N1 (centres unmarked)
II = O=C1CCC(N2Cc3cc(NC(=O)c4ccc5cc(O)ccc5c4)ccc3C2=O)C(=O)N1 (centres unmarked)
III = COc1ccc(Oc2cccc(C(=O)Nc3ccc4c(c3)CN(C3CCC(=O)NC3=O)C4=O)c2)cc1 (centres unmarked)
IV = COc1cc(C(=O)Nc2ccc3c(c2)CN(C2CCC(=O)NC2=O)C3=O)ccc1Oc1ccccc1 (centres unmarked)
query: Ordering criterion: IKZF1% degradation at 100 nM; begin with the maximum. Write the labels in rank order as requested.
result: III, I, IV, II

a = O=C1CCC(N2Cc3cc(NC(=O)C4=Cc5ccccc5OC4)ccc3C2=O)C(=O)N1 (centres unmarked)
b = O=C1CCC(N2Cc3cc(NC(=O)C4=Cc5ccc(OC(F)(F)F)cc5OC4)ccc3C2=O)C(=O)N1 (centres unmarked)
c = O=C1CCC(N2Cc3cc(NC(=O)Cc4cccc5ccccc45)ccc3C2=O)C(=O)N1 (centres unmarked)
query: Sort ascending by IKZF1% degradation at 100 nM. Ranked list of labels, please, in the requested order.
result: b, a, c
(b: 10.6%, a: 15.2%, c: 97.2%)

P = O=C1CCC(N2Cc3cc(NC(=O)c4ccc5c(c4)CCCC5)ccc3C2=O)C(=O)N1 (centres unmarked)
Q = O=C1CCC(N2Cc3cc(NC(=O)c4ccc5c(c4)OCCO5)ccc3C2=O)C(=O)N1 (centres unmarked)
R = CC(=O)Nc1ccc2c(c1)CN(C1CCC(=O)NC1=O)C2=O (centres unmarked)
S = O=C1CCC(N2Cc3cc(NC(=O)c4cccc(Oc5ccccc5)c4)ccc3C2=O)C(=O)N1 (centres unmarked)
query: With regard to IKZF1% degradation at 100 nM, arrange the entries in ascending order, please. Give me the labels in the order the question wants.
result: R, Q, P, S
(R: 4.4%, Q: 9.3%, P: 15.5%, S: 62.1%)

a = O=C1CCC(N2Cc3cc(NC(=O)C4=COc5ccccc5O4)ccc3C2=O)C(=O)N1 (centres unmarked)
b = CSc1ccc2cc(C(=O)Nc3ccc4c(c3)CN(C3CCC(=O)NC3=O)C4=O)ccc2c1 (centres unmarked)
query: In terms of reported IKZF1% degradation at 100 nM, does a or b have the smaller number? Let me know the label of the one you choose.
result: b
(b: 7.7%, a: 13.4%)

P = O=C(/C=C/c1ccccc1)Nc1ccc2c(c1)CN(C1CCC(=O)NC1=O)C2=O (centres unmarked)
Q = O=C1CCC(N2Cc3cc(NC(=O)c4ccc5c(c4)OCO5)ccc3C2=O)C(=O)N1 (centres unmarked)
R = COc1ccc2c(c1)OCC(C(=O)Nc1ccc3c(c1)CN(C1CCC(=O)NC1=O)C3=O)=C2 (centres unmarked)
query: Order each entry by recorded IKZF1% degradation at 100 nM, climbing from the minimum. Labels, requested order.
result: R, Q, P
